Experiment: Half life in 12 hr fasted BALB/c mouse at 80 mg/kg, po measured for 0.083 to 24 hrs by UPLC-MS/MS analysis
Assay type: ADME, organism-based
Conditions: in vivo, time 0.083-24 hrs
REPORTED METRIC: half-life
Answers without a unit are incomplete; give the number and then its unit.

Query: half-life; subject: CCN(c1cc(-c2ccc(OCCCCCNC(=O)C[C@@H]3N=C(c4ccc(Cl)cc4)c4c(sc(C)c4C)-n4c(C)nnc43)cc2)cc(C(=O)NCc2c(C)cc(C)[nH]c2=O)c1C)C1CCOCC1
4.16 h

====

Experiment: Half life in 12 hr fasted BALB/c mouse at 80 mg/kg, ip measured for 0.083 to 24 hrs by UPLC-MS/MS analysis
Format: ADME, organism-based
Details: in vivo, time 0.083-24 hrs
REPORTED METRIC: half-life (h)
Numbers only, in h.

Look at this compound and give its reported half-life. CCN(c1cc(-c2ccc(OCCCCCNC(=O)C[C@@H]3N=C(c4ccc(Cl)cc4)c4c(sc(C)c4C)-n4c(C)nnc43)cc2)cc(C(=O)NCc2c(C)cc(C)[nH]c2=O)c1C)C1CCOCC1
3.81

====

Experiment: Tmax in 12 hr fasted BALB/c mouse at 80 mg/kg, ip measured for 0.083 to 24 hrs by UPLC-MS/MS analysis
Format: ADME, organism-based
Conditions: in vivo, time 0.083-24 hrs
REPORTED METRIC: Tmax (h)
One number for each entry, in h.

Find the recorded Tmax belonging to CCN(c1cc(-c2ccc(OCCCCCNC(=O)C[C@@H]3N=C(c4ccc(Cl)cc4)c4c(sc(C)c4C)-n4c(C)nnc43)cc2)cc(C(=O)NCc2c(C)cc(C)[nH]c2=O)c1C)C1CCOCC1 and report it.
1

====

Answer each item with its documented IC50.
Biological target: Bromodomain-containing protein 4 (Homo sapiens, UniProt O60885)
Assay: Displacement of fluorescein-labeled JQ1 from His6/TEV cleavage site fused human BRD4 (residues N44 to E168) expressed in Escherichia coli BL21 (DE3) incubated for 60 min by Fluorescence polarization assay
Number plus unit, in that order.

Known IC50 results, listed for orientation:
CCN(c1cc(-c2ccc(NC(=O)CCCCCCCNC(=O)C[C@@H]3N=C(c4ccc(Cl)cc4)c4c(sc(C)c4C)-n4c(C)nnc43)cc2)cc(C(=O)NCc2c(C)cc(C)[nH]c2=O)c1C)C1CCOCC1 2340 nM
CCN(c1cc(-c2ccc(NC(=O)CCCCCCNC(=O)C[C@@H]3N=C(c4ccc(Cl)cc4)c4c(sc(C)c4C)-n4c(C)nnc43)cc2)cc(C(=O)NCc2c(C)cc(C)[nH]c2=O)c1C)C1CCOCC1 580 nM

We now examine a further compound.
Give IC50 (Bromodomain-containing protein 4 (Homo sapiens, UniProt O60885)) of the following compound: CCN(c1cc(-c2ccc(CNC(=O)C[C@@H]3N=C(c4ccc(Cl)cc4)c4c(sc(C)c4C)-n4c(C)nnc43)cc2)cc(C(=O)NCc2c(C)cc(C)[nH]c2=O)c1C)C1CCOCC1
1480 nM

====

Assay: Tmax in 12 hr fasted BALB/c mouse at 80 mg/kg, po measured for 0.083 to 24 hrs by UPLC-MS/MS analysis
Format: ADME, organism-based
Conditions: in vivo, time 0.083-24 hrs
REPORTED METRIC: Tmax (h)
Numbers only, in h.

I have this compound here, CCN(c1cc(-c2ccc(OCCCCCNC(=O)C[C@@H]3N=C(c4ccc(Cl)cc4)c4c(sc(C)c4C)-n4c(C)nnc43)cc2)cc(C(=O)NCc2c(C)cc(C)[nH]c2=O)c1C)C1CCOCC1 , and I need its recorded Tmax.
1
